# PROCEDURE_TEXT: qHTS for Inhibitors of the Functional Ribonucleoprotein Complex (vRNP) of Lymphocytic Choriomeningitis Arenaviruses (LCMV): Viability assay - alamar blue signal for LCMV Primary Screen (AID 1347085); further: nearly all actives have a fitted effect of over 80% in size
# DETAILS: alamar blue viability counter-screen, LCMV vRNP screen cells; series mostly up to 57.5 µM
Results filed as inconclusive are left out. Active and inactive are the calls of the source. The call rests on the fitted dose curve; tested in HEK293 reporter line.
Assign a class; possible classes are active, inactive

CC(C)[C@H]1C(=O)N[C@H](CO)Cc2c[nH]c3cccc(c23)N1C: active
NC(CO)(CO)CCc1ccc(Sc2cccc(OCc3ccccc3)c2)cc1Cl: inactive

Note: attention shifts to another entry.
Record lookup: outcome of this test for NC1=NC(=O)N2CC12 (stereo not drawn) ? inactive
